assaySummary: Microsomal metabolic stability assay
Assay type: in vitro ADME
setupConditions: pH 7.4; rat liver microsomes, 0.5 mg/mL protein, 1 μM compound; read-out: Rat LM Clint
I'd be grateful if you could share measured microsomal CLint at 1 μM for these entries.
I only need the number, in µL/min/mg, no unit after it.

Look up microsomal CLint at 1 μM: [2H]C([2H])([2H])NC(=O)c1cnc(NC(=O)C2CC2)cc1Nc1ccc2cnn(CC(F)(F)F)c2c1OC
87.4

Can you look up the measured microsomal CLint at 1 μM of [2H]C([2H])([2H])NC(=O)c1cnc(NC(=O)C2CC2)cc1Nc1ccc2cnn(CC(F)F)c2c1OC for me?
109

// lookup microsomal CLint at 1 μM for [2H]C([2H])([2H])NC(=O)c1cnc(NC(=O)C2CC2)cc1Nc1cc(F)c2cnn(CC)c2c1OC
124

Item [2H]C([2H])([2H])NC(=O)c1cnc(NC(=O)C2CC2)cc1Nc1cnn2ccn(CC(F)(F)F)c(=O)c12 has what recorded microsomal CLint at 1 μM?
110

Name the reported microsomal CLint at 1 μM value associated with the compound [2H]C([2H])([2H])NC(=O)c1cnc(NC(=O)C2CC2)cc1Nc1cn(C)c2ccn(C(C)C(F)(F)F)c(=O)c12 (centres unmarked)
46.4

Which microsomal CLint at 1 μM reading was recorded for the compound [2H]C([2H])([2H])NC(=O)c1cnc(Nc2cc(C)nc(C)n2)cc1Nc1cc(F)c2cnn(CC)c2c1OC ?
54.1

Given [2H]C([2H])([2H])NC(=O)c1cnc(NC(=O)C2CC2)cc1Nc1cn(C)c2ccn(CC(F)(F)F)c(=O)c12 , state its recorded microsomal CLint at 1 μM.
73

Name the recorded microsomal CLint at 1 μM for [2H]C([2H])([2H])NC(=O)c1cnc(Nc2cccc(C#N)c2)nc1Nc1cccc(-c2ncn(C)n2)c1OC .
43.6

May I ask what microsomal CLint at 1 μM has been recorded for [2H]C([2H])([2H])NC(=O)c1nnc(NC(=O)C2CC2)cc1Nc1csc2ccn(CC)c(=O)c12 ?
290

Record request: microsomal CLint at 1 μM value, item [2H]C([2H])([2H])NC(=O)c1nnc2cc1Nc1cc(cc(-c3ncn(C)n3)c1OC)COCc1cccc(n1)N2
47.1

Name the recorded microsomal CLint at 1 μM for [2H]C([2H])([2H])NC(=O)c1cnc(NC(=O)C2CC2)cc1Nc1ccc2ncn(CC)c2c1OC .
149

Entry CNC(=O)c1nnc(NC(=O)C2CC2)cc1Nc1cn(C)c2ccn(C)c(=O)c12 has what microsomal CLint at 1 μM?
32.4

May I ask what microsomal CLint at 1 μM has been recorded for [2H]C([2H])([2H])NC(=O)c1cnc(Nc2ccc(F)cn2)cc1Nc1ccc2cnn(CC)c2c1OC ?
43.9
